system: U-87 MG; test: Antiproliferative activity against human U-87 MG cells assessed as inhibition of cell growth pre-treated with compound followed by UV irradiation for 5 mins measured after 72 hrs by CTG assay; type: functional, cell-based, U-87MG ATCC; details: light or radiation study
pIC50: −log10 of the molar value.
observable: pIC50

INSERT INTO assay_data (smilesrepresentation, reported) VALUES
  ('COc1cc(COc2ccc3cc(CN(c4cc(-c5cc(OC6CCOCC6)c6ncnc(C)c6c5)cnc4OC)S(=O)(=O)c4ccc(F)cc4F)c(=O)oc3c2)c([N+](=O)[O-])cc1OC', 7.28);

====

molecular target: Phosphatidylinositol 4,5-bisphosphate 3-kinase catalytic subunit alpha isoform (Homo sapiens, UniProt P42336); experiment: Inhibition of PI3Kalpha (unknown origin) using PIP2 as substrate in presence of ATP by Kinase-Glo assay
Sequence (P42336 whole entry, canonical isoform): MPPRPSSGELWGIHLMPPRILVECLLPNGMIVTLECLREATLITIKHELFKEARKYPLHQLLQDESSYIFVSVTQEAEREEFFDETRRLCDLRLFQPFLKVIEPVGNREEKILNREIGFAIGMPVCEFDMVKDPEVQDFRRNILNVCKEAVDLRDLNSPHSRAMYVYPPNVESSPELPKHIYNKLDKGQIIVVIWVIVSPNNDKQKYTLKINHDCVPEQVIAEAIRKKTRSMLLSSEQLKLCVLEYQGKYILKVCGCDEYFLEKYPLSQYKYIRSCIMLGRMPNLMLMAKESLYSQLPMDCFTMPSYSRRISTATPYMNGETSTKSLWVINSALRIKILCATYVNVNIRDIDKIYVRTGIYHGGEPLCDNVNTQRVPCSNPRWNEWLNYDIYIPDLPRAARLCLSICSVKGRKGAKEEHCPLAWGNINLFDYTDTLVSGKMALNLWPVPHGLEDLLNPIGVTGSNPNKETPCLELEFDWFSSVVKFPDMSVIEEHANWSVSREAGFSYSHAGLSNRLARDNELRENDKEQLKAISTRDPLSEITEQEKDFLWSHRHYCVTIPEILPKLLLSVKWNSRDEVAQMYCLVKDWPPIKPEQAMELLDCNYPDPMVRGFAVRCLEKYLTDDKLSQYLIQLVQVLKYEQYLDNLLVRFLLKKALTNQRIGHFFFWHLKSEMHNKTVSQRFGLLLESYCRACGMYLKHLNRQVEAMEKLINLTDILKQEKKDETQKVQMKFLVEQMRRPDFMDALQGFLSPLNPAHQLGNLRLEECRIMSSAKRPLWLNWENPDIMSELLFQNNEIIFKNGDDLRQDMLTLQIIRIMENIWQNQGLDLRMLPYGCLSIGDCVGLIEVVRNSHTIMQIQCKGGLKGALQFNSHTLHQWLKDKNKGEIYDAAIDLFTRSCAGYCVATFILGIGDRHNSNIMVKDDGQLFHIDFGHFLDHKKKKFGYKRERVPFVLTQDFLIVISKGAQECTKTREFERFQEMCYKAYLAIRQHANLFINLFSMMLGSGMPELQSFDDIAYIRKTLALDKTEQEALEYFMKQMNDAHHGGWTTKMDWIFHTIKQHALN
As shown below, each of these molecules has a reported IC50 value.
observable: IC50 (nM)

INSERT INTO results (smilesrepresentation, observable, reported) VALUES
  ('COc1ncc(-c2cc(OC3CCOCC3)c3ncnc(C)c3c2)cc1N(Cc1cc2ccc(O)cc2oc1=O)S(=O)(=O)c1ccc(F)cc1F', 'IC50', 2.07),
  ('COc1cc(COc2ccc3cc(CN(c4cc(-c5cc(OC6CCOCC6)c6ncnc(C)c6c5)cnc4OC)S(=O)(=O)c4ccc(F)cc4F)c(=O)oc3c2)c([N+](=O)[O-])cc1OC', 'IC50', 18.9),
  ('COc1ncc(-c2cc(OC3CCOCC3)c3ncnc(C)c3c2)cc1NS(=O)(=O)c1ccc(F)cc1F', 'IC50', 0.17);

Where do these numbers come from? They come from ChEMBL document CHEMBL5360663.
